src = paper PMC7931226

# Test system: P-gp and Bcrp (rat, blood-brain barrier)
# assaySummary: In vivo efflux ratio
# Set-up: species or system Sprague Dawley rats
# condition: Sprague Dawley, intravenous, with elacridar 8.9 mg/hr/kg, 4.5-hour constant infusion

- compound: "COc1ccc(Cl)cc1C(=O)NCCc1ccc(S(=O)(=O)NC(=O)NC2CCCCC2)cc1 [glyburide]"
  measurementTarget: "P-gp and Bcrp (rat, blood-brain barrier)"
  efflux ratio at 4 h: 5.4

###

# assaySummary: Valspodar plasma and brain exposure, constant infusion or IV bolus in rats
# Assay type: in vivo, Sprague Dawley rats
# condition: Sprague Dawley, rat, plasma, intravenous, free plasma exposure (mean), range over doses, 0.09 to 8 mg/hr/kg constant infusion over 4.5 hours, rat plasma binding = 92%
propertyLabel: concentration at 4 h

- smilesStructure: "C/C=C/C[C@@H](C)C(=O)[C@H]1C(=O)N[C@@H](C(C)C)C(=O)N(C)CC(=O)N(C)[C@@H](CC(C)C)C(=O)N[C@@H](C(C)C)C(=O)N(C)[C@@H](CC(C)C)C(=O)N[C@@H](C)C(=O)N[C@H](C)C(=O)N(C)[C@@H](CC(C)C)C(=O)N(C)[C@@H](CC(C)C)C(=O)N(C)[C@@H](C(C)C)C(=O)N1C"
  val: "32 to 2590 ng/mL"
